# EXPERIMENT_DESCRIPTION: Ratio of heart to kidneys uptake after 60 min was determined in female Fischer rats after [125I]-labeled compound complexed with bovine serum albumin was injected intravenously
# Format: functional, Heart/Kidney
Decide using Ratio alone. Strictly below 3: y. Equal to or above 3: n.

Incoming: Ratio strictly < 3 for this compound? O=C(O)CCCCC[Te]CCCCCCCCC/C=C/I
Outgoing: n

Incoming: Just wondering, is Ratio of O=C(O)CCCCCCC[Te]CCCCCCC/C=C/I below 3?
Outgoing: n

Incoming: Please indicate whether the reported Ratio of O=C(O)CCCCCCCCC[Te]CCCCC/C=C/I is strictly below 3.
Outgoing: y

Incoming: Lab note: confirm whether the reported Ratio for this compound is below 3, equality not counting. compound: O=C(O)CCC[Te]CCCCCCCCCCC/C=C/I
Outgoing: n

Incoming: A record lists O=C(O)CCCCCCCCCCC[Te]CCC/C=C/I . Is its Ratio below 3?
Outgoing: y
